Protocol Description: safety test, oral and transdermal toxicity in rabbits
Test Conditions: rabbit, in vivo, topical or ocular, transdermal, read-out: LD50 (transdermal)
Readout Kind: LD50

*Q* Let me know recorded LD50 for CC/C=C\CCOC(C)=O [cis-3-hexenyl acetate] , thanks.
*A* > 5000 mg/kg

----------
System: mice
Protocol Description: safety test, 10 mg/kg to mice, 7 days observation
Format: in vivo
Test Conditions: 10 mg/kg in DMSO/water, 10 mice per group, observed for 7 days
Readout Kind: death of the mice

Record excerpt, results attached:
Molecule | Assay System | death of the mice
CCCCCCC(=O)OCC [ethyl heptanoate] | mice | no death
C=CCc1ccc(O)c(OC)c1 | mice | no death
C=CC(=C)CCC=C(C)C | mice | no death
CCCCCCCCO (single isomer, unassigned) | mice | no death
C=CCN=C=S (single isomer, unassigned) [allyl isothiocyanate] | mice | no death

*Q* GET death of the mice where system = mice and item = CCCCCCCCCCCCCCCCCCCC(=O)O
*A* no death
